Sourced from the supplement of paper PMC9233669

Test system: biotinyl-Trp-oxazolone
Experiment: self-aminoacylation, catalytic enhancement (BWO) (fold over background); higher = more active; k-Seq, kA / k0A0; sequences stand for … in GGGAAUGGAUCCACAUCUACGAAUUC…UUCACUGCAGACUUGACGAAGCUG
Variants at the floor of the assay were thinned out.
Below, each of the sequences is paired with its reported self-aminoacylation value.
Write no unit; give the number alone.

entry_sequence | tested_on | recorded_result
AUUCACUAAGGUCAUCGGGUG [Fam2.2 aminoacylation ribozyme variant] | biotinyl-Trp-oxazolone | 5.99
CCACAUUUCAAGCAAUUGGUC [Fam1B.1 aminoacylation ribozyme variant] | biotinyl-Trp-oxazolone | 0.656
CUACUUCAUACAAUCGCUCUG [Fam1A.1 aminoacylation ribozyme variant] | biotinyl-Trp-oxazolone | 0.357
AUUACACUUGUCAUCGAGUGA [Fam2.1 aminoacylation ribozyme variant] | biotinyl-Trp-oxazolone | 5.31
UCACACUUCAAGCAAUCGAUC [Fam1B.1 aminoacylation ribozyme variant] | biotinyl-Trp-oxazolone | 0.732
AUGCACCUAGGUGAUCGGGUG [Fam2.2 aminoacylation ribozyme variant] | biotinyl-Trp-oxazolone | 6.5
AAGUUUGCAAAAAGUCGCAAG [Fam3.1 aminoacylation ribozyme variant] | biotinyl-Trp-oxazolone | 0.831

Read the next record carefully.
So what self-aminoacylation did CUACACUUCAUGCAAUCGGUC [Fam1B.1 aminoacylation ribozyme variant] get with biotinyl-Trp-oxazolone?
0.496

----------
System: biotinyl-Met-oxazolone
Test: self-aminoacylation, catalytic enhancement (BMO) (fold over background); higher = more active; k-Seq, kA / k0A0; sequences stand for … in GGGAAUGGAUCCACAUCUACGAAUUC…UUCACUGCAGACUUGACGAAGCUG
This sample holds only a part of the variants without activity.
reported_property: self-aminoacylation
Write no unit; give the number alone.

Consider the reported self-aminoacylation for these sequences:
entry_sequence | recorded_result
AUCCACCUAGGUCAUCAGGUG [Fam2.2 aminoacylation ribozyme variant] | 1.74
AUGUUUGCUAAUAGUCACAAG [Fam3.1 aminoacylation ribozyme variant] | 1.17
CUGCUUGAAACAAUCGGUCUG [Fam1A.1 aminoacylation ribozyme variant] | 0.842
AUUCACCAAGGUCUUCGGGUG [Fam2.2 aminoacylation ribozyme variant] | 5.94
AUUACCCUGGUCAUCUCGUGA [Fam2.1 aminoacylation ribozyme variant] | 2.37
AUUACCGUGGUCAUCUAGUGA [Fam2.1 aminoacylation ribozyme variant] | 6.98
CUUACCCUGGUCAUCUAGUGA [Fam2.1 aminoacylation ribozyme variant] | 7.9
CUACUUCAAUUAAUCGGUCUG [Fam1A.1 aminoacylation ribozyme variant] | 1.03

Read the next record carefully.
Reported self-aminoacylation for AUACACCUAGGUCAUCGGGUA [Fam2.2 aminoacylation ribozyme variant] : what is it?
5.4

----------
System: biotinyl-Phe-oxazolone
Experiment: self-aminoacylation, catalytic enhancement (BFO) (fold over background); higher = more active; k-Seq, kA / k0A0; sequences stand for … in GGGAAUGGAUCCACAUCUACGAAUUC…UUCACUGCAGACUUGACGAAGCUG
Fewer inactive variants are shown than the library holds.
reported_property: self-aminoacylation
Write no unit; give the number alone.

Reported self-aminoacylation for AUUCAGUUAGGUCAUCGGGUG [Fam2.2 aminoacylation ribozyme variant] : what is it?
25.6

Reported self-aminoacylation for CUAUUUCAAACAAUUGGUCUG [Fam1A.1 aminoacylation ribozyme variant] : what is it?
0.87

----------
Tested on: biotinyl-Met-oxazolone
Test: self-aminoacylation, catalytic enhancement (BMO) (fold over background); higher = more active; k-Seq, kA / k0A0; sequences stand for … in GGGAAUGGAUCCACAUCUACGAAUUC…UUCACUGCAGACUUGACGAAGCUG
Fewer inactive variants are shown than the library holds.
Note that class boundaries on self-aminoacylation are low = under 0.9, intermediate = from 0.9 up to 3, high = 3 and over

Here's what some known entries look like.
entry_sequence | answer_label
ACUACGCUGGUCAUCGAGUGA [Fam2.1 aminoacylation ribozyme variant] | high
AUUAGCCUGGUCAUGGAGUGA [Fam2.1 aminoacylation ribozyme variant] | high
AUUACACUGGUCCUCGAGUGA [Fam2.1 aminoacylation ribozyme variant] | high
CUCCUUCAAACAAGCGGUCUG [Fam1A.1 aminoacylation ribozyme variant] | low
CCACACUUCAACGAAUCGGUC [Fam1B.1 aminoacylation ribozyme variant] | intermediate

Textbook exercise: identify the category of the sequence given here, AUUACCCUGGUCAGCGAGUGU [Fam2.1 aminoacylation ribozyme variant] , according to its measured value.
high

Textbook exercise: identify the category of the sequence given here, AAGUCUGGUAAUAGUCGCAAG [Fam3.1 aminoacylation ribozyme variant] , according to its measured value.
intermediate

----------
Tested on: biotinyl-Val-oxazolone
Test: self-aminoacylation, catalytic enhancement (BVO) (fold over background); higher = more active; k-Seq, kA / k0A0; sequences stand for … in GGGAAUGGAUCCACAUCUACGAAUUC…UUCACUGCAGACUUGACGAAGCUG
This sample holds only a part of the variants without activity.
reported_property: self-aminoacylation

Reported self-aminoacylation for CUACUUCAAGCAAUCGGUCAG [Fam1A.1 aminoacylation ribozyme variant] : what is it?
0.894

----------
Test system: biotinyl-Ile-oxazolone
Assay: self-aminoacylation, catalytic enhancement (BIO) (fold over background); higher = more active; k-Seq, kA / k0A0; sequences stand for … in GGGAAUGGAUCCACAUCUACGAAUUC…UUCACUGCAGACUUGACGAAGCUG
This sample holds only a part of the variants without activity.
Tick y if self-aminoacylation is 2 or greater. Tick n if self-aminoacylation is less than 2.

entry_sequence | answer_label
AAGCUUGCUAAUAGUCGCACG [Fam3.1 aminoacylation ribozyme variant] | n
AUUCACAUAGGUCAACGGGUG [Fam2.2 aminoacylation ribozyme variant] | y
CUACUCCAAACAAUCGGUCUU [Fam1A.1 aminoacylation ribozyme variant] | n
UUGUUUGCUAAUAGUCGCAAG [Fam3.1 aminoacylation ribozyme variant] | n

Here is another sequence to look at.
Hi team, for CUCCUUCAAACAUUCGGUCUG [Fam1A.1 aminoacylation ribozyme variant] , is the recorded self-aminoacylation at or above 2?
n

----------
Test system: biotinyl-Trp-oxazolone
Experiment: self-aminoacylation, catalytic enhancement (BWO) (fold over background); higher = more active; k-Seq, kA / k0A0; sequences stand for … in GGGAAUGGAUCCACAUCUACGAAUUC…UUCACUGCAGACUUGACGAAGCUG
Fewer inactive variants are shown than the library holds.
reported_property: self-aminoacylation

Consider the reported self-aminoacylation for these sequences:
entry_sequence | recorded_result
ACGCACCUAGGUCAUCGGGUG [Fam2.2 aminoacylation ribozyme variant] | 4.93
AAGUGUGCUACUAGUCGCAAG [Fam3.1 aminoacylation ribozyme variant] | 1.41
CUACUUGAAACAAUCUGUCUG [Fam1A.1 aminoacylation ribozyme variant] | 0.496
AUUACCCUGGUAAUCCAGUGA [Fam2.1 aminoacylation ribozyme variant] | 10.7

Reported self-aminoacylation for CUACUUCUAACGAUCGGUCUG [Fam1A.1 aminoacylation ribozyme variant] : what is it?
0.505

Reported self-aminoacylation for AUUAACUUAGGUCAUCGGGUG [Fam2.2 aminoacylation ribozyme variant] : what is it?
4.85

Reported self-aminoacylation for CUACUUCAAACCAUAGGUCUG [Fam1A.1 aminoacylation ribozyme variant] : what is it?
0.487

Reported self-aminoacylation for CAACACUUCAAGCAAGCGGUC [Fam1B.1 aminoacylation ribozyme variant] : what is it?
0.593

----------
Test system: biotinyl-Val-oxazolone
Assay: self-aminoacylation, catalytic enhancement (BVO) (fold over background); higher = more active; k-Seq, kA / k0A0; sequences stand for … in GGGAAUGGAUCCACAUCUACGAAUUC…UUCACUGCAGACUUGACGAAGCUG
Fewer inactive variants are shown than the library holds.
Below, each of the sequences is paired with its reported self-aminoacylation value.
Write no unit; give the number alone.

Consider the reported self-aminoacylation for these sequences:
entry_sequence | recorded_result
AUUACCCUGGACAUCGACUGA [Fam2.1 aminoacylation ribozyme variant] | 0.626
CAACUUCAAACAAGCGGUCUG [Fam1A.1 aminoacylation ribozyme variant] | 1
AUGACCCUCGUCAUCGAGUGA [Fam2.1 aminoacylation ribozyme variant] | 2.06
AUUAACCUGGUCAUGGAGUGA [Fam2.1 aminoacylation ribozyme variant] | 2.02
CUACUUCUAACGAUCGGUCUG [Fam1A.1 aminoacylation ribozyme variant] | 0.688

Reported self-aminoacylation for AUUGACCUAGGUCAUCGGUUG [Fam2.2 aminoacylation ribozyme variant] : what is it?
1.29

Reported self-aminoacylation for AUUGCCCUGGUCAUCGAGUGA [Fam2.1 aminoacylation ribozyme variant] : what is it?
23.7

Reported self-aminoacylation for AAGUUUGCUAAUAGUCCCGAG [Fam3.1 aminoacylation ribozyme variant] : what is it?
1.27

Reported self-aminoacylation for AUUGCCUUGGUCAUCGAGUGA [Fam2.1 aminoacylation ribozyme variant] : what is it?
4.83

Reported self-aminoacylation for AUUACCCGGGUCAUCGGGUGA [Fam2.1 aminoacylation ribozyme variant] : what is it?
7.9

Reported self-aminoacylation for AAGUUCGUUAAUAGUCGCAAG [Fam3.1 aminoacylation ribozyme variant] : what is it?
1.53

Reported self-aminoacylation for AUUCACCUAUGACAUCGGGUG [Fam2.2 aminoacylation ribozyme variant] : what is it?
1.73

Reported self-aminoacylation for AUUCACCUAGGUUCUCGGGUG [Fam2.2 aminoacylation ribozyme variant] : what is it?
2.68

Reported self-aminoacylation for AAGUUUGCAAGUAGUCGCAAG [Fam3.1 aminoacylation ribozyme variant] : what is it?
0.914

Reported self-aminoacylation for AUUACCCUUGUCAUCGCGUGA [Fam2.1 aminoacylation ribozyme variant] : what is it?
5.9

Reported self-aminoacylation for CUACCUCAAACAAUCGGUCUU [Fam1A.1 aminoacylation ribozyme variant] : what is it?
0.865

Reported self-aminoacylation for AUUACCCGGGUCAUCGAGUGA [Fam2.1 aminoacylation ribozyme variant] : what is it?
3.85

Reported self-aminoacylation for AUUCAUCUAGGUCGUCGGGUG [Fam2.2 aminoacylation ribozyme variant] : what is it?
1.86

Reported self-aminoacylation for CUACUUCGCACAAUCGGUCUG [Fam1A.1 aminoacylation ribozyme variant] : what is it?
0.961

Reported self-aminoacylation for CAACACUUUAAGCAAUCGGUC [Fam1B.1 aminoacylation ribozyme variant] : what is it?
0.846

Reported self-aminoacylation for AAGUUUGCUAAUAGGCGCUAG [Fam3.1 aminoacylation ribozyme variant] : what is it?
0.722

Reported self-aminoacylation for AAGUUUGAUAAUGGUCGCAAG [Fam3.1 aminoacylation ribozyme variant] : what is it?
0.644
